Test: yeast display, Sf9 membrane polyspecificity reagent, FACS + sequencing; frameworks hold sequencing errors
Measurement Kind: polyreactivity (PSR sort gate)

Completed entries (count: 6):
Biosequence	polyreactivity (PSR sort gate)
QLQLVESGGGLVQAGGSLRLSSAASGITLYQYAMGWYRQSPGKERELVAAISSSGGSTYYADSVKGRFTISRDNAKNTVYLQMNSLKPEETAVYYCAAADRFWYGYYQYDYWGQGTQVTVSS	high polyreactivity
QVQHVESGGGLDQAGGSLRLSCAASGRIFYANAMGWYRQAPRKERELVAAIDWSGGSTYYADSVKGRFTISRDNAKNTVYLQMNSLKPEDTAVYYCAGPYHYYGNSVGYADYVYWGQGTQVTVSS	low polyreactivity
QVQLVESGGGLVQAGGSLRLSCAASGSIITGYAMGWYRQAPVKERELVAGINSGTSTNYADSVKGRFTISRDNAKNTVSLQMNSLKPEDTAVYYCAKTAERRHYGVYRFDYWGQGTQVTVSS	low polyreactivity
QVQLVESGGALVQAGGSLRLSCAASGFTFIPNAMGWYRQAPGKERELVAAIYSSGGTTYYADSVKGRFTISRDTAKNTVYLQMNSLKTEDTAVYYCARRVYGYYIPYNYWGQATQVTVSS	high polyreactivity
QVQLVESGGGLVQAGGSLRLICAASGRIFVYNAKGSYSQAPGKDRELVATITSGGSTYYSDSVKGRFTISRDNAKNTVYFQMNSLKPEDTAVYYCAARRWYVHYFAYGYWGQGTQVTVSS	low polyreactivity
QVQLVESGGGLVQAGGSLRLSCAASGFTIGDYAMGWYRQAPGKERELVAAITYSGGSTYYADSVKGRFTISRDNAKNTVYLQMNSLKPEDTAVYYCNADYASQSGYDYWGQGTQVTVSS	low polyreactivity

State the recorded polyreactivity (PSR sort gate) for every item in the following list.
1. QVQLVESGGGLVQAGGSLRLSCAASGSIFYSNAMGWYRQAPGKERELVADISWSDGSTYYADSVKGRFTISRDNAKNNVYLQMNSLKPEDTAVYYCARKAGYSYFRRYDYWGQGTQVTVSS
2. QVQLVESGGPLVQAGGSLLLSCAASGFTFTVYAKGWYRQAPGKERELVAAITYNGGSTYYADSVKGRFTISRDNAKNTVYLQMNSLKPEDTAVYYCAAEVFLRSLGYWYDFWGLGTQVTVSS

1: low polyreactivity; 2: high polyreactivity

State the recorded polyreactivity (PSR sort gate) for every item in the following list.
1. QVQLVESGGGLVQAGGSLRLSCAASGSIFDPYAMGWYRQAPGKERELVAAITASGSSTYYADSVKGRFTISRDNAKNTVYLQMYSLKPEDTAVYYCAADRANWEYLLSWLGYDYWGQGTQVTVSS
2. QVQLVESGGVLGQAGVSLRLSCAASGRIFDGNTMGWYIQAPGQEREFVAAISGGGSTYYADSVKGRFTISRDNAKNTVYLQMNSLKPEDTAVYYCAATTGPVPLKGDYWGQGTQVTVSS
3. QVQLVESGGGLVQAGGSLRLSCAASGSTFKRYAMGLYRQAPGKERELVASIPSAASTYYADSVKGRFSISRDNAKNTVNLQMNSLKPEDTAVYYCAASAYSALYYWYDYWGQGTQVTVSS

low polyreactivity
low polyreactivity
high polyreactivity

====

Test: yeast display, Sf9 membrane polyspecificity reagent, FACS + sequencing; frameworks hold sequencing errors
Measurement Kind: polyreactivity (PSR sort gate)

Biosequence	polyreactivity (PSR sort gate)
QVQLQESGGGLVQAGGSLRLSCAASGSISHYIFMCWYRQSPGKEREFVAGIGYGGTTNYADSVKGRFTISRDNAKNTVYLQMISLTPEDTAMYYCAAREATEFYLYYWGQGTQVTVSS	low polyreactivity
QVQLVETGGGLVQAGGSLRLSCAPSGSTFYYYVMGWYRPPPGNERELVAAINSGGSTYYADSVKGRFTISRDNAKNTVYLQMNSLKPEDTAVYYCAKSWSYWYQYFYWGQGTQVTVSS	low polyreactivity
QVHIVESGAGLVQAGGSLRLSCAASGSIFRYNAMGWYRQAPGKEREFVAAITYSGGSTYYADSVTGRFTISRDNAKNTLFLQMNSLKPEDTAVYYCAAGYCSRGSRDGYWGQGTQVSVSS	low polyreactivity
QVQLVESGGGLVHAGGSLRLSCDASGFTFAGYSMGWYRQAPGKERELVAGIRSSGARTYYADSVKGRFTISRDNAKTTVYLQKNILKPEHTAVYYCAKTDGFYSGYGYWGQGTQVTVSS	low polyreactivity
QVQLVESGGGLVQAGGSLRLSCAASGYIFQWYDMGWYRQAPGKERELVAAISVTTGSTYYADSVKGRFTISRDNAKNTVYLQMNSLKPEDTAVYYCAAVSWYRHDMYYWGQGTQVTVSS	low polyreactivity

State the recorded polyreactivity (PSR sort gate) for every item in the following list.
1. QVQLVESGGGLVQAGGSLRLSCAASGFTFYYNAMGWYRQAPGKERELVATISGSGGRTYYADSVKGRFTISRDNAKNTVYLQMNSLKPEDTAVYYCAARYVWSRYGYWGQGTQVTVSS
2. QVQLVETGGGLVQAGGSLRLSCAASGFTFEGYAMGWYRQAPGKERELVAAINGSGGSTYYADSVKGRFTISRDNAKNTVYLQMNSLKPEDTAVYYCAKTDAFYRGYGYWGQGTQVTVSS
3. QVQLVESGGGLVQAGGSLRISCAASGIIFKGYAMGWYRQAPGKERELVAAISHNADSTYADSVKGRFTISRDNAKNTVYLQMNSLNPEDTAVYYCNADTPLRSDYWGQGTQVTVSS
4. QVQLVESGGGLVQAGGSLRLSCAASGSTFAVYTMGWYRQAPGKEREMSTSYADSVKGRFTISRDNAKNTVYLQMTCLKPEDTAVYYCNRDFYEFDSNSYRFDYWGQGTQVTVSS

["high polyreactivity", "low polyreactivity", "low polyreactivity", "low polyreactivity"]

State the recorded polyreactivity (PSR sort gate) for every item in the following list.
1. QVQLVESGGGLVQAGGSLRLSCAASGFTFPPYAMGWYRQAPGKERELVAAITSSGGRTYYADSVKGRFTISRDNAKNTVYLQMNSLKPEDTAVYYCAAYGRFARMNYWGQGTQVTVSS
2. QVQLVESGGGLVQEGGSLRLSCAASGIIFLDNAMGWYRQAPGKERELVAAITTGGITYYADSVKGRFTISRDNAKNTVYLQMNSLKPEDTAVYYCATDPVNSGYQRYYYWGQGTQVTVSS
3. QVQLVESGGGLVQAGGSLRLSCAASGFIFVLYSMGWYRQAPGKERELVAGITGSTDTYYADSVKGRFTISRDNAKNTVYLQMNSLKPEDTAVYYCAAGRLRIWYDSWGQGTQVTVSS
4. QVQLVESGRGLVQAGGSLRLSCAASGRTFARYAIGWYRPAPGKERELVATIRRVGSTNYADSVNGRFTISRDNAKNTVYLQMNSLKPEDTAVYYCAARSLRYGRGMYYWGQGTQVTVSS
5. QVQLVESGGGLVQAGGSLRLSCAASGRTFAAYAMGWYRPAPGKERELVAGITSSSVRTYYADSVKGRFTISRDNAKNTVYLQMNSLKPEDTAVYYRTARADGSSSRWRPYSKFYYWGQGTQVTVSS
6. QVQLEESGGGLVQAGGSLRLSCAASGSTFYANTMGSYRQAPGKERELVATISIDGSTNYADSVKGRFTISRDNAKNTVYLQMNTLKPEDTAVYYCNADVYSVLYGYWGQGTQVTVSS

1. high polyreactivity
2. low polyreactivity
3. low polyreactivity
4. high polyreactivity
5. low polyreactivity
6. low polyreactivity

====

Experiment: yeast display, Sf9 membrane polyspecificity reagent, FACS + sequencing; frameworks hold sequencing errors
Measurement Kind: polyreactivity (PSR sort gate)

Completed entries (count: 4):
Biosequence	Recorded Measurement
QVQLVESVGGLVQAGGSLRLSCAASGLIFATYAMGWYRQAPGKESELVADITTTGSTYYADSVKGRFTISRDNAKNTDYLQMNSLKPEATAVYYCAAYCRLLSGYDFDYWGKGTQVTVSS	high polyreactivity
QVQLVESGGGLVQAGGSLRLSCAASGGILPKYAMGWYRQAPGKERELVAAIDGGGDSTYYADSVKGRFTISRDNAKNTVYLQMNSLKPEDTAVFYCAAYQWTGYYLEYDYWGQGTQVTVSS	low polyreactivity
QVQLVESGGGLVQAGGTLRLSCADSGSTIRNYAMGWYRQAPGKERELVATISASGGSTYYADSVKGRFTISRDNAKNTVYLQLNSLKPEDTAVYYCNAVVKLWGLVIPPGDYDYWRQGTQVTVSS	high polyreactivity
QVQLVESGGGLVQAGGSLRLSCAASGRIFWNYAMGWYRQAPGKERELVAGISSSDGSTYYADSVKGRFTISRDNAKNTVYFQMNSLKPEDTAVYYCAVDKGGRYHVENYYWGQGTQVTVSS	low polyreactivity

Next, consider the following sequence.
Would you mind telling me what polyreactivity (PSR sort gate) value was observed for QVQLVESGGGLVQAGGSLRLSCAASGRTFGRNAMGWYRQAPGKERELVAAISDRGASTYYADSVKGRFTISRDNAKNTVYLQMNSLKPEDTAVYYCAAVFWVDILPGDYWGQGTQVTVSS ?
low polyreactivity

Each recorded value in this set is attributed to the nanobody polyreactivity screen of Harvey et al. (2022).
